assay: reduced mouse 2C T cell binding to pMHC/ICAM-1 vesicles – MLPCN validation set, flow cytometry, LFA-1/ICAM-1 modulator project, pilot screen (AID 2523); conditions: 2C mouse CD8+ T cells, at 7 µM, active compounds read low;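 also: mean PE anti-B7-1 fluorescence of CD8+ cells relative to row control; 100% = QL9-loaded vesicles with DMSO vehicle in the same plate row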
Classify on vesicle binding response using bin 1 = under 90%, bin 2 = from 90% up to 200%, bin 3 = 200% and over

MOLECULE: Cc1ccc2c(ccc(=S)n2C)c1
CLASS NAME: bin 1
--
MOLECULE: CC1(CC(=O)Nc2ccccc2)NC(=S)N(c2ccccc2)N1 (configuration not stated)
CLASS NAME: bin 3
--
MOLECULE: COc1ccccc1/C=C/C(=O)OCCN1CCOCC1
CLASS NAME: bin 3
--
MOLECULE: O=C1c2cccc3cccc(c23)C(=O)N1c1ccccn1
CLASS NAME: bin 1
--
MOLECULE: N/C(=N\OC(=O)CCCOc1ccc(Cl)cc1Cl)c1ccncc1
CLASS NAME: bin 2
--
MOLECULE: O=C(Oc1ccccc1)Oc1ccc2c(c1)oc(=O)c1ccccc12
CLASS NAME: bin 3
--
MOLECULE: COc1ccc(C=O)c(OC)c1
CLASS NAME: bin 2
--
MOLECULE: CC(C)OC(=O)C1C2C=CC3(CN(CC4CCCO4)C(=O)C13)O2 (configuration not stated)
CLASS NAME: bin 2
--
MOLECULE: CC1(C)CC(=O)C(C2=NC(C)(C)Cc3ccccc32)=C(O)C1
CLASS NAME: bin 1
--
MOLECULE: O=C(COc1ccc(F)cc1)OCCN1CCOCC1
CLASS NAME: bin 3
--
MOLECULE: Cc1ccc2nc(N=C(N)N)nc(C)c2c1
CLASS NAME: bin 2
--
MOLECULE: C/C(=N\NC(=O)c1ccccc1[N+](=O)[O-])c1ccc(Br)s1
CLASS NAME: bin 2

====

test: TOR pathway GLN3 branch reporter MEP2-GFP changes – S. cerevisiae, multiplex flow cytometry, primary screen (AID 1867);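 also: median GFP channel fluorescence of barcode-gated MEP2-GFP cells measured by flow cytometry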; details: S. cerevisiae MEP2-GFP strain, 3 h, at 10 µM, active compounds read high, 100% means same as DMSO wells
Results filed as inconclusive are left out. Peptide text beside a SMILES is read from it.

COMPOUND: COc1cc2c(cc1OC)-c1nnc(C)n1C(C)(C)C2
UNITS SYMBOL: %
GFP response vs DMSO: 94.1
--
COMPOUND: CSc1ccc(CN2CCN(CCC(C)C)C(CCO)C2)cc1 (stereo unspecified)
UNITS SYMBOL: %
GFP response vs DMSO: 106
--
COMPOUND: COc1ccc2c(=O)c(-c3cnn(-c4ccccc4)c3)c(C)oc2c1
UNITS SYMBOL: %
GFP response vs DMSO: 101
--
COMPOUND: Cc1cccc(NC(=O)c2cc3ccccc3o2)c1
UNITS SYMBOL: %
GFP response vs DMSO: 115
--
COMPOUND: CC(NC(=O)OCc1ccccc1)C(=O)N1CC(O)CC1C(=O)O (stereo unspecified)
UNITS SYMBOL: %
GFP response vs DMSO: 112
--
COMPOUND: Fc1ccccc1CNCCC(Cc1ccccc1)c1ccc2c(c1)OCO2 (stereo unspecified)
UNITS SYMBOL: %
GFP response vs DMSO: 107
--
COMPOUND: COC(=O)c1ccc(-c2ncc(-c3cccc4ccccc34)o2)cc1
UNITS SYMBOL: %
GFP response vs DMSO: 104
--
COMPOUND: CCn1cc(CN2N=C(C)CC2c2ccccc2)c(C)n1 (stereo unspecified)
UNITS SYMBOL: %
GFP response vs DMSO: 120
--
COMPOUND: C[C@]12CC[C@@H]3c4ccc(O)cc4C(=O)C[C@H]3[C@@H]1CC[C@@H]2O
UNITS SYMBOL: %
GFP response vs DMSO: 148
--
COMPOUND: CCOC(=O)C1=C2c3ccc4ccccc4c3CC(C)(C)N2C(=O)C1=O
UNITS SYMBOL: %
GFP response vs DMSO: 93
--
COMPOUND: O=C(CCc1c[nH]c2ccccc12)NCc1ccco1
UNITS SYMBOL: %
GFP response vs DMSO: 106
--
COMPOUND: CC(=O)NC(CC(C)C)C(=O)NC(Cc1ccccc1)C(N)=O (stereo not drawn) (Ac-Leu-Phe-NH2; configuration not given here)
UNITS SYMBOL: %
GFP response vs DMSO: 107
--
COMPOUND: CCO/C([O-])=N/c1c[n+](N2CCOCC2)no1
UNITS SYMBOL: %
GFP response vs DMSO: 97.7
--
COMPOUND: CC(=O)SC1CC2=CC(=O)CCC2(C)C2CCC3(C)C(CCC34CCC(=O)O4)C12 (stereo unspecified)
UNITS SYMBOL: %
GFP response vs DMSO: 103
--
COMPOUND: COc1cccc(CC2CC(=O)N(c3ccc4c(C)cc(=O)oc4c3)C2=O)c1 (stereo unspecified)
UNITS SYMBOL: %
GFP response vs DMSO: 106
--
COMPOUND: CCOc1ccc2ccccc2c1C(=O)N[C@@H]1C(=O)N2[C@@H]1SC(C)(C)[C@@H]2C(=O)O
UNITS SYMBOL: %
GFP response vs DMSO: 112
--
COMPOUND: C[C@]12CCC3C(CC=C4C[C@@H](O)CC[C@@]43C)C1CCC2[C@]1(C)CCC(=O)O1 (stereo partly specified)
UNITS SYMBOL: %
GFP response vs DMSO: 97.4
--
COMPOUND: CC(=O)OC(CC(=O)O)C[N+](C)(C)C (stereo unspecified)
UNITS SYMBOL: %
GFP response vs DMSO: 103
--
COMPOUND: Cc1coc2c1c(C)cc1oc(=O)c(Cc3ccccc3)c(C)c12
UNITS SYMBOL: %
GFP response vs DMSO: 98.7
--
COMPOUND: N#CCC(N)=C(C#N)C#N
UNITS SYMBOL: %
GFP response vs DMSO: 120
--
COMPOUND: O=c1c2ccccc2nc2n1CCCN2
UNITS SYMBOL: %
GFP response vs DMSO: 97.4
--
COMPOUND: C#CCOc1ccc2c(C)cc(=O)oc2c1
UNITS SYMBOL: %
GFP response vs DMSO: 93
--
COMPOUND: COC(=O)c1[nH]c2ccc(C)cc2c1NC(=O)CN1CCc2cc(OC)c(OC)cc2C1
UNITS SYMBOL: %
GFP response vs DMSO: 111
--
COMPOUND: O=C(COc1ccc2ccc(=O)oc2c1)c1ccccc1
UNITS SYMBOL: %
GFP response vs DMSO: 130
--
COMPOUND: CC(C)N1C(=O)/C(=C\c2nc3ccccc3c(=O)[nH]2)c2ccccc21
UNITS SYMBOL: %
GFP response vs DMSO: 106
--
COMPOUND: NCCc1ccc(O)c(O)c1
UNITS SYMBOL: %
GFP response vs DMSO: 107
--
COMPOUND: CC(C)(C)N(Cc1ccccc1)C(=O)c1ccc(Br)o1
UNITS SYMBOL: %
GFP response vs DMSO: 102
--
COMPOUND: c1ccc(Nc2cccc3c(Nc4ccccc4)cccc23)cc1
UNITS SYMBOL: %
GFP response vs DMSO: 107
--
COMPOUND: CC(=O)C1=C(O)C(=O)N(Cc2cccnc2)C1c1ccc(C(C)C)cc1 (stereo unspecified)
UNITS SYMBOL: %
GFP response vs DMSO: 109
--
COMPOUND: CC(CCc1ccccc1)NC(=O)/C=C/c1ccccc1 (stereo unspecified)
UNITS SYMBOL: %
GFP response vs DMSO: 132
--
COMPOUND: COc1cccc(CC(=O)NCC2COc3ccccc3O2)c1OC (stereo unspecified)
UNITS SYMBOL: %
GFP response vs DMSO: 105
--
COMPOUND: COc1ccccc1NC(=O)C12CCC(C)(C(=O)C1)C2(C)C (stereo unspecified)
UNITS SYMBOL: %
GFP response vs DMSO: 105
--
COMPOUND: CC(=O)C1=C(O)C(=O)OC1c1ccc(C)cc1 (stereo unspecified)
UNITS SYMBOL: %
GFP response vs DMSO: 119
--
COMPOUND: Cc1cccc(Nc2ncccc2C(=O)O)c1C
UNITS SYMBOL: %
GFP response vs DMSO: 103
--
COMPOUND: CC(C)CC(NC(=O)CNC(=O)C1O[C@@H]2OC(C)(C)O[C@@H]2[C@H]2OC(C)(C)O[C@@H]12)C(=O)O (stereo partly specified)
UNITS SYMBOL: %
GFP response vs DMSO: 104
--
COMPOUND: CCOc1ccc2nc(S(N)(=O)=O)sc2c1
UNITS SYMBOL: %
GFP response vs DMSO: 104
--
COMPOUND: CC12CCCCN1CCCc1c2[nH]c2ccccc12 (stereo unspecified)
UNITS SYMBOL: %
GFP response vs DMSO: 105
--
COMPOUND: COc1ccc(S(=O)(=O)NCc2ccco2)c2ccccc12
UNITS SYMBOL: %
GFP response vs DMSO: 104
--
COMPOUND: COc1ccccc1/C=C/C(=O)OCCN1CCOCC1
UNITS SYMBOL: %
GFP response vs DMSO: 119
--
COMPOUND: CC(=O)[C@@]1(O)CC[C@H]2[C@@H]3CCC4=CC(=O)CC[C@]4(C)[C@H]3[C@@H](O)C[C@@]21C
UNITS SYMBOL: %
GFP response vs DMSO: 95.9
--
COMPOUND: Cc1ccc2c(c1C)NC(C(=O)O)C1CC=CC21 (stereo unspecified)
UNITS SYMBOL: %
GFP response vs DMSO: 97.4
--
COMPOUND: OC(CCN1CCCCC1)(c1ccccc1)c1ccccc1
UNITS SYMBOL: %
GFP response vs DMSO: 126
--
COMPOUND: Cn1c(=O)[nH]c2nnc(-c3ccc(Cl)c(Cl)c3)nc2c1=O
UNITS SYMBOL: %
GFP response vs DMSO: 102
--
COMPOUND: C=CCn1c(N2CCCCCC2)nc2c1c(=O)n(C)c(=O)n2C
UNITS SYMBOL: %
GFP response vs DMSO: 97.6
--
COMPOUND: COc1cc2c(cc1OC)C1(CCCC1)CNC2c1cccc([N+](=O)[O-])c1 (stereo unspecified)
UNITS SYMBOL: %
GFP response vs DMSO: 103
--
COMPOUND: CCN1CCn2c3c(c4cc(Cl)ccc42)CCCC31 (stereo unspecified)
UNITS SYMBOL: %
GFP response vs DMSO: 102
